Biological target: canine CD3 on canine T cells (canine PBMC) (canine, UniProt P27597 22-202)
Sequence (P27597 22-202 limits assumed, chain 1 of 3): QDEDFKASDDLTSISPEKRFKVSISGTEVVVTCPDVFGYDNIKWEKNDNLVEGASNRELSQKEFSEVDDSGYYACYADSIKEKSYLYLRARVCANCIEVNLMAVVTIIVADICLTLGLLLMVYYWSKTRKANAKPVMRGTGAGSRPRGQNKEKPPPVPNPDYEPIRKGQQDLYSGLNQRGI
Sequence (chain, as listed by the source limits assumed, chain 2 of 3): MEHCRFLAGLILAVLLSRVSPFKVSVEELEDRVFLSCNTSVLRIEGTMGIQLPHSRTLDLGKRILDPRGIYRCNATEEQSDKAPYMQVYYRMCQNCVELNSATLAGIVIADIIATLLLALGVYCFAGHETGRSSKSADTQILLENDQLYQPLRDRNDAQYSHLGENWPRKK
Sequence (chain, as listed by the source limits assumed, chain 3 of 3): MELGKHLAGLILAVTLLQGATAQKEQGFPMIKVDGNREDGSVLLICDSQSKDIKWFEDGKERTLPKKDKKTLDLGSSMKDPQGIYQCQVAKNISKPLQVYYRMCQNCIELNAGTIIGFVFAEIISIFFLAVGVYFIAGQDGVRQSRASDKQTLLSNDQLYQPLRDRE
Experiment: cell-based or functional assay
READOUT_LABEL: IFNy Concentration pg/ml, Day 9, IS (pg/mL)
Provide only the numeric value, understood in pg/mL.

IFNy Concentration pg/ml, Day 9, IS reading for PMX192 (monospecific anti-canine CD3, canine IgG-B effector function deficient Fc) (antibody, V domains shown) VH: EVQLVESGGDLVKPAGSLRLSCVASGFTFSDYSMSWVRQAPEKGLQLVAGINGDGSTTYYTDAVKGRFTISRDNAKNTVYLQMNSLRAEDTAMYYCAKGAGTGDFWGQGTLVTVSS VL: SYELTQPPSVNVTLRETAHITCGGASIGRKYVQWIQQIPGQAPVVIIYKDSNRPTGIPERFSGANSGNTATLTISGALAEDEADYYCQVGDSGAWVFGEGTQLTVL : 210

IFNy Concentration pg/ml, Day 9, IS reading for PMX158 (monospecific anti-canine CD3, canine IgG-B effector function deficient Fc) (antibody, V domains shown) VH: ELTLQESGPGLVKPSQTLSLTCVVSGGSVTRSYYWNWIRQRPGRGLEWMGYWTGTTNYNPAFQGRISITADTAKNQCSLQLSSMTTEDTAVYYCAREGGKLLGAFGHWGQGTLVTVSS VL: SYVLTQLPSKNVTLKQPAHITCGGDKIGSKSVHWYQQKLGQAPVLIIYYDSSRLTGIPERFSGANSGNTATLTISGALAEDEADYYCQVWDSSAKASVFGGGTHLTVL : 88.3

IFNy Concentration pg/ml, Day 9, IS reading for PMX167 (monospecific anti-canine CD3, canine IgG-B effector function deficient Fc) (antibody, V domains shown) VH: EVKLVESGGDLVKPGGSLRLSCMASGFTLNNYYMSWVRQAPGKGLQWVAYIKSGGSDTSYVDAVKGRFTISRDNAKNTLHLQMNSLRVEDTAVYYCATDGYIWAWGQGTLVTVSS VL: SYVLTQLPSKNVTLKQPAHITCGGDNIGSKSVHWYQQKLGQAPVLIIYYDNSRPTGIPERFSGAKSGNTATLTISGALAEDEADYYCQVWDSSSKAYVFGSGTQLTVL : 802

IFNy Concentration pg/ml, Day 9, IS reading for PMX183 (monospecific anti-canine CD3, canine IgG-B effector function deficient Fc) (antibody, V domains shown) VH: ELTLQESGPGLVKPSQTLSLTCVVSGGSVTNSYYWNWIRQRPGRELEWMGYWTGGTKYNPAFQGRISISADTAKNQFSLQLTSMTTEDTAVYYCARDRDRRVPHAYGYWGQGTLVTVSS VL: SYVLTQLPSKNVTLKQPAHITCGGDNIGSKSVHWYQQKLGQAPVLIIYYDSSRPTGIPERFSGANSGNTATLTISGALAEDEADYYCQVWDSSAKASVFGGGTHLTVL : 153

IFNy Concentration pg/ml, Day 9, IS reading for PMX176 (monospecific anti-canine CD3, canine IgG-B effector function deficient Fc) (antibody, V domains shown) VH: EVQLVESGGDLVKPGGSLRLSCVASGFTFSSYHMSWVRQAPGKGLQWVAYINSAGSTTSYTDAVQGRFTISRDNAKNTLYLQMNSLRAEDTAVYYCASEWIFMPWGQGSLVTVSS VL: SYVLTQLPSKNVTLKQPAHITCGGDNIGSKSVHWYQQKLGQAPVLIIYYDSSRPTGIPERFSGANSGNTATLTISGALAEDEADYYCQVWDSSAKARVFGEGTQLTVL : 278
